Reference source: patent EP2951180B1

# target_entity: HDM2 (Homo sapiens)
# Construct: Thioredoxin (N); made in house; host or cells: E. coli strain BL21(DE3)Rosetta
# test_summary: HDM2 FRET assay (inhibition of binding of FITC labeled p53-pocket peptide to HDM2)
# assay_context: Table 22; read-out: FRET IC50

- compound: "CC(O)c1nc2nc(-c3noc(=O)[nH]3)nc(N[C@H](C)C3CCC3)c2n1C[C@H]1CC[C@H](C)CC1 (single isomer, unassigned) [Example 22.14]"
  IC50 [nM]: 81.1
- compound: "C[C@@H](Nc1nc(-c2noc(=O)[nH]2)nc2nc(C(C)(C)O)n(C[C@H]3CC[C@H](C)CC3)c12)C1CCC1"
  IC50 [nM]: 20.5
- compound: "C[C@@H](Nc1nc(-c2noc(=O)[nH]2)nc2nc(C(C)(O)c3ccccn3)n(C[C@H]3CC[C@H](C)CC3)c12)C1CCC1 (single isomer, unassigned) [Example 22.6]"
  IC50 [nM]: 10.4

* * *

# target_entity: HDM2 (Homo sapiens, UniProt Q00987)
# Construct: Thioredoxin (N); made in house; host or cells: E. coli strain BL21(DE3)Rosetta
# Sequence (Q00987 17-125): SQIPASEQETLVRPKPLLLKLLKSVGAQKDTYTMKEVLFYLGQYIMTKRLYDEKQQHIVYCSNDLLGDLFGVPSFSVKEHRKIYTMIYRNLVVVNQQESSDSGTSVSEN
# test_summary: HDM2 FRET assay (inhibition of binding of FITC labeled p53-pocket peptide to HDM2)
# assay_context: Table 23; read-out: FRET IC50
recorded_metric: IC50

- compound: "C[C@H]1CC[C@H](Cn2c(C3(c4ccccc4F)CC3)nc3nc(-c4noc(=O)[nH]4)nc(-c4cncc(Cl)c4)c32)CC1"
  observed_result: "5.94 nM"
- compound: "COC1(c2nc3nc(-c4n[nH]c(=O)o4)nc(-c4cncc(Cl)c4)c3n2C[C@H]2CC[C@H](C)CC2)CCCCC1"
  observed_result: "14.1 nM"
- compound: "CC(O)(c1nc2nc(-c3noc(=O)[nH]3)nc(-c3cccc(Cl)c3)c2n1C[C@H]1CC[C@H](C)CC1)C1CCOCC1 (mixture of isomers)"
  observed_result: "19.2 nM"
- compound: "C[C@H]1CC[C@H](Cn2c(C(O)C3CCOCC3)nc3nc(-c4noc(=O)[nH]4)nc(-c4cncc(Cl)c4)c32)CC1 (mixture of isomers)"
  observed_result: "67.3 nM"
- compound: "C[C@H]1CC[C@H](Cn2c(C(=O)C3CCOCC3)nc3nc(-c4noc(=O)[nH]4)nc(-c4cccc(Cl)c4)c32)CC1"
  observed_result: "21.4 nM"
- compound: "C[C@H]1CC[C@H](Cn2c(C3(F)COC3)nc3nc(-c4noc(=O)[nH]4)nc(-c4cncc(Cl)c4)c32)CC1"
  observed_result: "62.8 nM"

* * *

# target_entity: HDM2 (Homo sapiens)
# Construct: Thioredoxin (N); made in house; host or cells: E. coli strain BL21(DE3)Rosetta
# test_summary: HDM2 FRET assay (inhibition of binding of FITC labeled p53-pocket peptide to HDM2)
# assay_context: Table 9; read-out: FRET IC50
# From the text: Methods: An HDM2 FRET assay was developed to assess the compounds' inhibitory activity towards binding of p53 protein. […] Protein was purified using Ni-affinity chromatography, followed by size exclusion chromatography using Superdex 75 26/60 column. […] The HDM2 assay buffer contained 1x Phosphate Buffered Saline (Invitrogen, Cat#14190), 0.01% BSA (Jackson ImmunoResearch, Cat# 001-000-162), 0.01% Tween-20. […]
pIC50: −log10 of the molar value.

- compound: "C[C@@H](Nc1nc(C(=O)O)nc2nc(N3CCc4ccccc4C3)n(Cc3ccc(C(F)(F)F)cc3)c12)C1CCC1"
  pIC50: 7.98
- compound: "C[C@@H](Nc1nc(-c2noc(=O)[nH]2)nc2nc(N(C)C3CCCCC3)n(Cc3ccc(C(F)(F)F)cc3)c12)C1CCC1"
  pIC50: 7.63
- compound: "C[C@@H](Nc1nc(-c2noc(=O)[nH]2)nc2nc(N(C)CC3CCOCC3)n(Cc3ccc(C(F)(F)F)cc3)c12)C1CCC1"
  pIC50: 7.33
- compound: "C[C@@H](Nc1nc(C(=O)O)nc2nc(N3CCCCC3Cc3ccccc3)n(Cc3ccc(C(F)(F)F)cc3)c12)C1CCC1 (stereo partly drawn)"
  pIC50: 7.84
- compound: "C[C@@H](Nc1nc(-c2noc(=O)[nH]2)nc2nc(N(C)C3CCCC3)n(Cc3ccc(C(F)(F)F)cc3)c12)C1CCC1"
  pIC50: 7.86
- compound: "C[C@@H](Nc1nc(C(=O)O)nc2nc(N3CCCC34CCc3ccccc34)n(Cc3ccc(C(F)(F)F)cc3)c12)C1CCC1 (stereo partly drawn)"
  pIC50: 7.89
